- measurement.notes: PSAC antagonists in infected red cells, primary screen, cell-based, P. falciparum Indochina, OD700, 1 h (AID 1154)
- setup.conditions: P. falciparum Indochina infected RBC osmotic lysis, higher = more signal, called active from +8 up or from −8 down
reported.property: z-score
Please state the value as a number alone, without comment.

Form field: reported z-score of C=CC[C@@]12N=C(c3ccc(OCCCO)cc3)O[C@@H]1c1ccccc1CN(Cc1ccccc1)C2=O
28.3

Query Cc1ccc(S[C@]2(C(=O)O)CC(=O)N(Cc3ccccc3)[C@@H]2c2ccc(CO)cc2)cc1 next
2.85

Query C=C(CCCC)C(=O)CC[C@@H](OC(C)=O)c1ccccc1OCCO next
4.13

Query Cc1ccc([C@@H]2CC=C(C(=O)O)[C@H](c3ccccc3)N2S(=O)(=O)c2ccc(C)cc2)cc1 next
1.83

Query COc1ccc(CCNC(=O)[C@@]2(c3ccc([N+](=O)[O-])cc3)CC(=O)N(C(C)C)[C@@H]2c2ccc(CO)cc2)cc1 next
4.07

Query CC(C)(C)OC(=O)CC[C@@]1(C(=O)NCc2ccccc2)N=C(c2ccc(OCCCO)cc2)O[C@@H]1c1ccccc1 next
23.9

Query O=C(NCc1ccccc1)c1ccc(Br)cc1[N+](=O)[O-] next
-0.403

Query N#Cc1ccc(NN2C(C(O)c3ccc(I)cc3)C=CC3C(=O)N(c4ccccc4)C(=O)C32)cc1 (stereo unspecified) next
9.81

Query CC1CC/C=C\[C@H]2OC34C=CCN(Cn5nnc6ccccc65)C(=O)[C@H]3N(C(C)CO)C(=O)[C@@H]4C2C(=O)O1 (stereo partly specified) next
2.25

Query C=CCNC(=O)[C@@H]1[C@H]2C(=O)O[C@H](c3ccccc3)[C@H](c3ccccc3)N2[C@H](c2ccc(OCCO)cc2)[C@@]12C(=O)N(C(=O)OCCOC)c1ccc(C#CC3(O)CCCCCC3)cc12 next
5.36

Query C[N+](C)(C)CCCCNC(=O)[C@H]1C[C@H]2C(=O)NCC(=O)N2[C@H]1c1cccc(OCCO)c1 next
2.81

Query COCC(=C=CC[C@H](O)c1ccc(OCCO)cc1)C[C@H](O)c1ccccn1 next
8.89

Query COc1ccc([Si](C)(C)[C@@H]2[C@@H](CC(=O)N(CCO)Cc3ccccc3)O[C@]3(C(=O)N(Cc4cccc(N5CCC5=O)c4)c4ccccc43)[C@H]2C)cc1 next
3.67

Query CO[C@H]1COC(=O)[C@H](CCSC)NC(=O)CC=C[C@@H](C)COC(=O)[C@@H](OCc2ccccc2)C=C[C@@H]1C next
-0.349

Query COC(=O)[C@@]1(Cc2ccccc2)[C@H]2c3cc(C(=O)N4CCCC4)n(CCN4CNCC4=O)c3C[C@H]2CN1C(=O)c1ccccc1 next
-0.469

Query CC(C)CNC(=O)[C@@]1(C)c2ccccc2C(=O)N(Cc2ccc(OC(F)(F)F)cc2)[C@H]1c1ccc(CO)cc1 next
2.97

* * *

- measurement.notes: binders from COS7 lysate, DM2A8 probe, primary screen, torsin A project, cell lysate, small-molecule microarray, fluorescence 635/667 (AID 1065)
- setup.conditions: higher = more signal, COS7 lysate expressing mutant human TOR1A
reported.property: composite z-score
Please state the value as a number alone, without comment.

Form field: reported composite z-score of CC(=O)NCCCC[C@@H]1NC(=O)[C@@H]2C[C@H](C(=O)NCc3ccc(F)cc3)[C@H](c3cccc(OCCO)c3)N2C1=O
-0.0522

Query O=C1OCCC=C[C@H]2OC34C=CCN(Cc5ccccc5)C(=O)[C@H]3N(CCO)C(=O)[C@@H]4C12 (stereo partly drawn) next
-0.465

Query C=C(COC)/C(=C/C[C@H](OC(C)=O)c1ccc(OCCO)cc1)c1cnc2ccccc2c1 next
0.0548

Query CCCCO[C@H]1C[C@H]2C(Br)=C[C@@]1(CO)C(=O)[C@]21CO1 next
0.407

Query CCCC/C=C/[C@H]([C@@H](O)Cc1ccccc1)N(CC#Cc1ccccc1)Cc1ccccc1Br next
-0.37

Query C#CCCCON=C1C[C@@H](O)[C@@H](O)[C@@H]2[C@@H]3C(=O)N(Cc4ccc5c(c4)OCO5)C(=O)[C@@H]3CC[C@H]12 next
0.933

Query O=C1O[C@H](c2ccccc2)[C@H](c2ccccc2)N2[C@H]1[C@@H](C(=O)NC[C@H](O)c1ccccc1)[C@]1(C(=O)Nc3ccc(C#CC4=CCCCC4)cc31)[C@H]2c1ccc(OCCO)cc1 next
0.21

Query C=C[C@H](OC)[C@@H](OC(=O)Nc1ccc(SC)cc1)c1ccc(O)c(F)c1 next
-0.22

* * *

Record form. Attribute: composite z-score. Fill in for each entry.
- Test system: Human papillomavirus type 1a E7 protein (residues 1-88)
- measurement.notes: HPV1a E7 small-molecule binders, primary screen, biochemical, small-molecule microarray, residues 1-88, 635 nm (AID 1129)
- setup.conditions: small-molecule microarray binding, fluorescence 635 nm; higher = more signal
Please state the value as a number alone, without comment.

Form field: reported composite z-score of C=C(COC)C(=O)CC[C@H](OC(=O)c1ccccc1-c1ccccc1C(=O)O)c1cccc(OCCO)c1
1.27

Query [N-]=[N+]=Nc1ccccc1C[C@@]1(C(=O)N2CCOCC2)N=C(c2ccc(OCCCO)cc2)O[C@@H]1c1ccccc1N=[N+]=[N-] next
1.19

Query O=C1C2C=CC(C(O)C#Cc3ccccc3)N(Nc3ccccc3)C2C(=O)N1c1ccccc1 (stereo unspecified) next
0.356

Query COC(=O)C[C@H]1O[C@]2(C(=O)N(C)c3ccccc32)[C@@H](C)[C@@H]1[Si](C)(C)c1ccc(OC)cc1 next
0.824

Query O=C(N1CCCCC1)[C@@]1(CCS(=O)(=O)c2ccccc2)N=C(c2ccc(OCCCO)cc2)O[C@H]1c1ccccc1 next
1.26

Query CC(=O)Nc1ccc([C@H]2[C@H](C)CC[C@H]3C(=O)N4[C@@H](CC[C@@H](C)[C@@H]4c4ccc(NC(C)=O)cc4)C(=O)N32)cc1 next
1.16

Query COc1ccc(-c2cc3c(c(-c4ccccc4)n2)[Si](C(C)C)(C(C)C)O[C@H]3c2ccccc2)cn1 next
0.438

Query CO[C@H]1COC(=O)[C@H](C)NC(=O)CC=C[C@@H](C)[C@H](NS(=O)(=O)c2ccc(C)cc2)COC(=O)CC=C[C@@H]1C next
-0.64

Query C=CCNC(=O)[C@@H]1[C@H]2C(=O)O[C@H](c3ccccc3)[C@H](c3ccccc3)N2[C@H](c2ccc(OCCO)cc2)[C@@]12C(=O)N(C(=O)OCCOC)c1ccc(C#CC3(O)CCCCCC3)cc12 next
1.2

Query C=C(CCCC)/C(=C/C[C@H](OC(=O)c1ccncc1)c1cccc(OCCO)c1)c1cc(C(=O)OC)ccc1OC next
0.492

Query CO[C@H]1COC(=O)[C@@H](Cc2ccccc2)NC(=O)[C@@H](C)COC(=O)CC=C[C@@H]1C next
-0.0865

Query C[C@H]1C2[C@H](Cc3ccccc3)NC(=O)[C@]23C(=O)N[C@H](Cc2ccccc2)C(=O)N[C@@H](Cc2ccccc2)C(=O)NC/C=C\C/C=C/C3[C@@H]2O[C@]12C (stereo partly specified) next
-0.318

Query C=CC[C@]1(C(=O)O)N=C(c2ccc(OCCCO)cc2)O[C@H]1c1ccccc1N=[N+]=[N-] next
-0.171

Query C/C(=N\O)C(=O)NCCCCCNC(=O)OCc1ccccc1 next
0.783

Query CO[C@H]1COC(=O)CC=C[C@@H](C)COC(=O)[C@@H](C)NC(=O)CC=C[C@@H]1C next
-1.53

Query C=C(COC)/C(=C/C[C@@H](OC(=O)c1ccncc1)c1ccc(OCCO)cc1)c1cc(C(=O)OC)ccc1OC next
1.21

* * *

- Test system: Inhibin beta A chain (activin A)
- measurement.notes: INHBA (activin A) binders on microarrays, primary screen, biochemical, small-molecule microarray, 635 nm fluorescence scan (AID 1107);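 further: mouse activin A protein probed at 4.33 µg/mL on printed slides; score merges bound-protein fluorescence near 667 nm with spot signal-to-noise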
- setup.conditions: small-molecule microarray binding, higher = more signal
Record form. Attribute: composite z-score. Fill in for each entry.
Please state the value as a number alone, without comment.

Form field: reported composite z-score of CN(C)c1ccc(C(O)C2C=CC3C(=O)NC(=O)C3N2Nc2ccc(Cl)cc2Cl)cc1 (centres undefined)
1.43

Query O=C1c2ccccc2[C@](Cc2ccccc2I)(C(=O)O)[C@H](c2ccc(CO)cc2)N1C1CCCCC1 next
0.198

Query COc1cccc([C@H]2N[C@H](C(=O)O)CC[C@@H]2C)c1 next
0.282

Query C=CCNC(=O)[C@H]1[C@@H]2C(=O)O[C@@H](c3ccccc3)[C@@H](c3ccccc3)N2[C@@H](c2ccc(O)cc2)[C@]12C(=O)Nc1ccc(C#CCNC(N)=O)cc12 next
0.323

* * *

- measurement.notes: splicing luciferase reporter signal modulators, primary screen, spliceosome inhibition project, cell-based, HEK293, splice +/- reporter (AID 1101);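 further: HEK293 cells carrying a splicing-competent luciferase reporter gene; test concentration not given here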
- setup.conditions: luminescence, 24 h, higher = more signal, called active from +8 up or from −8 down
reported.property: z-score
Please state the value as a number alone, without comment.

Form field: reported z-score of CC(C)C[C@@H]1NC(=O)[C@H](CC(C)C)NC(=O)[C@@]23C(=O)N[C@@H](Cc4ccccc4)C2[C@H](C)[C@@]2(C)O[C@H]2C3/C=C/CC/C=C/CNC1=O (stereo partly drawn)
-0.218

Query C[C@@H]1NC(=O)CC=C[C@@H](C)[C@@H]2C=C[C@H](O)[C@@H](COC(=O)[C@H](C)NC(=O)CC=C[C@@H](C)[C@@H]3C=C[C@H](O)[C@@H](COC1=O)O3)O2 next
-1.61

Query O=C1C2C=CC(C(O)C(c3ccccc3)c3ccccc3)N(Nc3ccc([N+](=O)[O-])cc3)C2C(=O)N1c1ccccc1 (stereo not drawn) next
0.597

Query NC(=O)NCC#Cc1ccc2c(c1)[C@]1(C(=O)N2)[C@H](C(=O)N2CCCCCCC2)[C@H]2C(=O)O[C@H](c3ccccc3)[C@H](c3ccccc3)N2[C@@H]1c1ccccc1OCCO next
0.0838

Query C[C@H]1COC(=O)[C@H](Cc2ccccc2)NC(=O)[C@@H](C)COC(=O)[C@H](Cc2ccccc2)NC1=O next
-1.67

Query CN(C)CCCC[C@@H]1NC(=O)[C@@H]2C[C@H](C(=O)NCCCCCNC(=O)CS)[C@H](c3ccc(O)cc3)N2C1=O next
-0.812

Query C#C[C@H](O[Si](C#Cc1ccccc1)(C(C)C)C(C)C)c1ccccc1 next
-0.647

Query CC(C)[C@H]1NC(=O)[C@@]23C(=O)N[C@@H](Cc4ccccc4)C2[C@H](C)[C@@]2(C)O[C@H]2C3/C=C/C/C=C\CNC(=O)[C@H](C)NC1=O (stereo partly drawn) next
0.616

Query C[C@@H]1CC[C@H]2C(=O)N3CCC[C@H]3C(=O)N2[C@H]1c1ccc(Br)cc1 next
-0.931

Query C=C(COC)C(=O)CC[C@H](OC(=O)c1ccccc1-c1ccccc1C(=O)O)c1cccc(OCCO)c1 next
-3.03

Query NC(=O)NCC#Cc1ccc2c(c1)[C@]1(C(=O)N2)[C@H](c2ccccc2OCCO)N2[C@H](c3ccccc3)[C@H](c3ccccc3)OC(=O)[C@H]2[C@@H]1C(=O)N1CCN(c2ncccn2)CC1 next
0.222

Query C=C(C(=O)CC[C@H](OC(=O)c1ccccc1-c1ccccc1C(=O)O)c1ccc(CO)o1)C(C)C next
-0.107

Query C=C(COC)/C(=C/C[C@@H](OC(=O)c1ccncc1)c1ccc(OCCO)cc1)c1cc(C(=O)OC)ccc1OC next
-1.43

Query O=C(N1CCCCC1)[C@@]1(CCS(=O)(=O)c2ccccc2)N=C(c2ccc(OCCCO)cc2)O[C@H]1c1ccccc1 next
-0.372

Query CC[C@@H]1C=C(C(=O)O)[C@H](c2ccccc2)N1S(=O)(=O)c1ccc([N+](=O)[O-])cc1 next
-0.812

Query COc1ccc(-c2cc3c(c(-c4ccccc4)n2)[Si](C(C)C)(C(C)C)O[C@H]3c2ccccc2)cn1 next
0.96

Query C=CC[C@]1(C(=O)N2CCCCC2)N=C(c2ccc(OCCCO)cc2)O[C@H]1c1ccccc1N=[N+]=[N-] next
-0.461

Query COc1cccc([C@@H]2[C@@H](C)CC[C@H]3C(=O)N(C)[C@@H](C(C)C)C(=O)N23)c1 next
0.223

Query CO[C@@H]1COC(=O)[C@@H]2CCCN2C(=O)CC=C[C@@H](C)[C@H](OC)COC(=O)[C@@H]2CCCN2C(=O)CC=C[C@H]1C next
-0.481

Query CO[C@@H]1COC(=O)[C@H](C)NC(=O)CC=C[C@@H](C)[C@H](OC)COC(=O)[C@H](C)NC(=O)CC=C[C@H]1C next
-0.415

Query C=CCOC(=O)[C@@H]1[C@H]2C(=O)O[C@H](c3ccccc3)[C@H](c3ccccc3)N2[C@H](c2ccc(OCCOC(=O)[C@H]3C[C@H]4C(=O)N5CCC[C@H]5C(=O)N4[C@H]3c3ccc(O)cc3)cc2)[C@@]12C(=O)Nc1ccccc12 next
-1.3

Query COc1ccc(CCNC(=O)[C@@]2(c3ccc([N+](=O)[O-])cc3)CC(=O)N(C(C)C)[C@@H]2c2ccc(CO)cc2)cc1 next
-0.58

Query COc1ccc([Si](C)(C)[C@H]2[C@H](CCO)O[C@@]3(C(=O)N(Cc4ccccc4)c4ccc(N5C(=O)c6cccc7cccc5c67)cc43)[C@@H]2C)cc1 next
-1.1

Query C=C(CCCC)/C(=C/C[C@@H](OC(=O)c1ccncc1)c1ccc(CO)o1)c1cnc2ccccc2c1 next
0.0419

Query C=C(/C(=C/C[C@@H](OC(=O)c1ccncc1)c1ccc(CO)o1)c1cnc2ccccc2c1)C(C)C next
0.168

Query COC(=O)C1=CC(c2ccc(CO)cc2)=CC(c2cccs2)N(Cc2cccc(OC(F)(F)F)c2)C=C1C(=O)OC (stereo not drawn) next
0.939

Query CO[C@@H]1COC(=O)[C@H](COCc2ccccc2)NC(=O)CC=C[C@@H](C)[C@H](OC)COC(=O)[C@H](COCc2ccccc2)NC(=O)CC=C[C@H]1C next
-0.923

Query CO[C@@H]1COC(=O)CC=C[C@H](C)COC(=O)[C@H](Cc2ccccc2)NC(=O)CC=C[C@H]1C next
-0.912
